Test: Log P by HPLC on reversed phase columns, method [a] (EEC directive 79/831 Annex V.A8)
Assay type: physicochemical
Conditions: reversed phase HPLC column; method [a], HPLC on reversed phase columns; read-out: logP
Method: Measurement of Log P values as provided herein was performed according to EEC directive 79/831 Annex V.A8 by HPLC (High Performance Liquid Chromatography) on reversed phase columns with the following methods: • ^[a] […] Lambda-max-values were determined using UV-spectra from 200 nm to 400 nm and the peak values of the chromatographic signals In table 1, the log P values were determined according to method [^a]. In table 2, the log P values were determined according to method [^a].
Labelling field: enter YES if recorded chromatographic logP is less than 3. Enter NO if it equals or exceeds that cut-off.

>>> discrete_label("Fc1ccccc1C1(Nc2ncc(-c3nnc(C(F)F)o3)cn2)CCCC1")
"NO"
>>> discrete_label("Fc1ccccc1C1(Nc2ncc(-c3nnc(C(F)(F)F)s3)cn2)CC1")
"NO"
>>> discrete_label("FC(F)c1nnc(-c2cnc(NC3(C4(c5ccccc5)CC4)CC3)nc2)o1")
"NO"
>>> discrete_label("FC(F)c1nnc(-c2cnc(NC3(c4cc(Cl)ccc4Cl)CC3)nc2)o1")
"NO"
>>> discrete_label("Fc1ccc(C(Nc2ncc(-c3nnc(C(F)F)o3)cn2)C(F)(F)F)cc1 (racemic)")
"NO"
>>> discrete_label("FC(F)c1nnc(-c2cnc(NC3(c4ccco4)CCCC3)nc2)o1")
"NO"
>>> discrete_label("FC(F)c1nnc(-c2cnc(NC3(c4ccccc4Br)CC3)nc2)o1")
"NO"
>>> discrete_label("CC(Nc1ncc(-c2nnc(C(F)F)o2)cn1)c1cccs1 (racemic)")
"YES"
>>> discrete_label("FC(F)c1nnc(-c2cnc(NC3(c4cc(Cl)ccn4)CC3)nc2)o1")
"YES"
>>> discrete_label("FC(F)c1nnc(-c2cnc(NC3(c4ccccc4Br)CCCCC3)nc2)o1")
"NO"

* * *

Assay: Log P by HPLC on reversed phase columns, method [a] (EEC directive 79/831 Annex V.A8)
Assay type: physicochemical
Details: reversed phase HPLC column; method [a], HPLC on reversed phase columns; read-out: logP
test_readout: chromatographic logP

>>> reported("CON(c1ncc(-c2nnc(C(F)F)o2)cn1)C(C)c1cccc(C(F)(F)F)c1 (racemic) [I.184]")
3.94
>>> reported("CC(Nc1ncc(-c2nnc(C(F)F)o2)cn1)c1ccc2ccccc2c1 (racemic) [I.232]")
3.45
>>> reported("COc1ccc(C(C)Nc2ncc(-c3nnc(C(F)F)o3)cn2)cc1 (racemic) [I.207]")
2.75
>>> reported("O=[N+]([O-])c1cc(C2(Nc3ncc(-c4nnc(C(F)F)o4)cn3)CC2)ccc1Cl [I.259]")
2.96
>>> reported("Fc1ccc([C@H](Nc2ncc(-c3nnc(C(F)F)o3)cn2)C2CCCC2)cc1 [I.244]")
4.05
>>> reported("Fc1cccc(C2(Nc3ncc(-c4nnc(C(F)F)o4)cn3)CCCC2)c1 [I.172]")
3.6
>>> reported("CC(Nc1ncc(-c2nnc(C(F)F)o2)cn1)c1cccc(C(F)(F)F)c1 (racemic) [I.239]")
3.37
>>> reported("O=C(c1ccc(F)cc1F)N(C(=O)c1ccc(F)cc1F)c1ncc(-c2nnc(C(F)F)o2)cn1 [I.185]")
3.59
>>> reported("Cc1ccc(C(C)(C)Nc2ncc(-c3nnc(C(F)F)o3)cn2)cc1 [I.204]")
3.46
>>> reported("CCC(Nc1ncc(-c2nnc(C(F)F)o2)cn1)c1ccccc1Br (racemic) [I.260]")
3.64
>>> reported("Fc1ccc(C(F)(F)CNc2ncc(-c3nnc(C(F)F)o3)cn2)cc1 [I.234]")
2.9
>>> reported("FC(F)c1nnc(-c2cnc(NC3(c4cccc(Cl)c4Cl)CC3)nc2)o1 [I.253]")
3.74
>>> reported("FC(F)c1nnc(-c2cnc(NC3(c4ccc(Cl)c(Cl)c4)CC3)nc2)o1 [I.252]")
3.43
>>> reported("FC(F)c1nnc(-c2cnc(NC3(c4cc(Cl)cc(Cl)c4)CC3)nc2)o1 [I.254]")
3.63
>>> reported("Cc1cccc(C)c1C1(Nc2ncc(-c3nnc(C(F)F)o3)cn2)CC1 [I.216]")
3.8
>>> reported("FC(F)c1nnc(-c2cnc(NC3(c4ccc(Cl)cc4Cl)CC3)nc2)o1 [I.255]")
4.05
